Please provide measured Population Mitotic Cells (%) for the entries that follow.
# System: HEK-293T
# protocol_text: Multiplex assay against HEK293T
# Assay type: toxicity, cell-based
# condition_context: human, 12 h, 1 µM, compound concentration 1 uM, replicate 1
// note: answer is a bare numeric in %

Looking up Cc1ccc(C)c(Oc2ccncc2C(=O)N2CCN(C3CC3)c3ccccc32)c1 , I see its Population Mitotic Cells (%) listed as 56

Looking up CCCSc1nc(N[C@@H]2C[C@H]2c2ccc(F)c(F)c2)c2nnn([C@@H]3C[C@H](OCCO)[C@@H](O)[C@H]3O)c2n1 [TICAGRELOR] , I see its Population Mitotic Cells (%) listed as 43

Looking up CN1CCN(Cc2ccc(Nc3ncc(Cl)c(Nc4ccccc4S(=O)(=O)N(C)C)n3)cc2)CC1 [DUBERMATINIB] , I see its Population Mitotic Cells (%) listed as 51

Looking up Cc1c[nH]c2nccc(Oc3c(F)cc(Nc4cc(Cl)nc(N)n4)cc3F)c12 [BAY-549] , I see its Population Mitotic Cells (%) listed as 62

###

# Test system: U2OS
# protocol_text: Multiplex assay against U2OS
# Assay type: toxicity, cell-based
# condition_context: human, 12 h, 10 µM, compound concentration 10 uM, replicate 2
Please provide measured Population Tubulin-Different-Phenotype (%) for the entries that follow.
// note: answer is a bare numeric in %

Looking up CNC(=O)Nc1ccc2c(c1)[C@@]1(CC2)OC(=O)N(CC(=O)N(Cc2ccc(F)cc2)[C@@H](C)C(F)(F)F)C1=O , I see its Population Tubulin-Different-Phenotype (%) listed as 28

Looking up Cc1nc(N2CC[C@H](O)C2)ncc1-c1cc(C(F)(F)F)cc2[nH]ncc12 , I see its Population Tubulin-Different-Phenotype (%) listed as 41

Looking up CC(C)Oc1ccccc1C(=O)Nc1ccccc1C(=O)Nc1cccc(S(=O)(=O)C(F)(F)F)c1 , I see its Population Tubulin-Different-Phenotype (%) listed as 100

Looking up C=CC(=O)Nc1cccc(Oc2nc(Nc3ccc(N4CCN(C)CC4)cc3OC)ncc2Cl)c1 , I see its Population Tubulin-Different-Phenotype (%) listed as 22

Looking up Cc1ccc2c(c1)c1c(n2CCc2ccc(C)nc2)CCN(C)C1 [LATREPIRDINE] , I see its Population Tubulin-Different-Phenotype (%) listed as 100

Looking up CCc1ccc(OCc2ccccc2C(=O)Nc2ccc3nc(C)cc(N)c3c2)cc1.Cl , I see its Population Tubulin-Different-Phenotype (%) listed as 100

Looking up CC1=C(C(=O)Nc2cc3cn[nH]c3cc2F)C(c2ccc(C(F)(F)F)cc2)CC(=O)N1 (centres undefined) , I see its Population Tubulin-Different-Phenotype (%) listed as 25

Looking up CCCSc1nc(N[C@@H]2C[C@H]2c2ccc(F)c(F)c2)c2nnn([C@@H]3C[C@H](OCCO)[C@@H](O)[C@H]3O)c2n1 , I see its Population Tubulin-Different-Phenotype (%) listed as 96

Looking up COC(=O)C1=C(C)NC(C)=C(C(=O)OCCCN2CCC(c3ccccc3)(c3ccccc3)CC2)[C@H]1c1cccc([N+](=O)[O-])c1 , I see its Population Tubulin-Different-Phenotype (%) listed as 100

###

# System: HEK-293T
# protocol_text: Multiplex assay against HEK293T;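 for Population Tubulin-Different-Phenotype (%): share of the cells with healthy nuclei that show this phenotype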
# Assay type: toxicity, cell-based
# condition_context: human, 12 h, 10 µM, compound concentration 10 uM, replicate 2
Note: every record was labeled by where its Population Tubulin-Different-Phenotype (%) sits among lo (below 20%), med (20% to below 30%), hi (30% or more)

Class? Entry: CC(C)(C)NC[C@H](O)COc1nsnc1N1CCOCC1 [TIMOLOL] lo

Class? Entry: CC(C)c1noc(N2CCC(COc3ccc(-c4ccc(S(C)(=O)=O)cc4)nc3)CC2)n1 [GSK-1292263] med

Class? Entry: CC(C)Oc1ccccc1C(=O)Nc1ccccc1C(=O)Nc1cccc(S(=O)(=O)C(F)(F)F)c1 hi

Class? Entry: CN1CCN(Cc2ccc(Nc3ncc(Cl)c(Nc4ccccc4S(=O)(=O)N(C)C)n3)cc2)CC1 [DUBERMATINIB] hi

Class? Entry: CC1=C(C(=O)Nc2cc3cn[nH]c3cc2F)C(c2ccc(C(F)(F)F)cc2)CC(=O)N1 (centres undefined) hi

Class? Entry: Cc1nc(N2CC[C@H](O)C2)ncc1-c1cc(C(F)(F)F)cc2[nH]ncc12 lo

Class? Entry: C=CC(=O)Nc1cccc(Sc2nc(Nc3ccc(N4CCN(C)CC4)cc3)ncc2Cl)c1 med

Class? Entry: Cc1ccc2c(c1)c1c(n2CCc2ccc(C)nc2)CCN(C)C1 [LATREPIRDINE] hi

###

Please provide measured Population Apoptotic (%) for the entries that follow.
# System: U2OS
# protocol_text: Multiplex assay against U2OS
# Format: toxicity, cell-based
# condition_context: human, 24 h, 1 µM, compound concentration 1 uM, replicate 1

Looking up CN1CCN(Cc2ccc(Nc3ncc(Cl)c(Nc4ccccc4S(=O)(=O)N(C)C)n3)cc2)CC1 , I see its Population Apoptotic (%) listed as 88%

Looking up CCCSc1nc(N[C@@H]2C[C@H]2c2ccc(F)c(F)c2)c2nnn([C@@H]3C[C@H](OCCO)[C@@H](O)[C@H]3O)c2n1 , I see its Population Apoptotic (%) listed as 9%

Looking up CC(C)c1noc(N2CCC(COc3ccc(-c4ccc(S(C)(=O)=O)cc4)nc3)CC2)n1 , I see its Population Apoptotic (%) listed as 50%

Looking up Cc1cccc(CN2CCN(C(c3ccccc3)c3ccc(Cl)cc3)CC2)c1.Cl.Cl (configuration not stated) , I see its Population Apoptotic (%) listed as 45%

Looking up COc1cc2ncn(-c3cc(OCc4ccccc4C(F)(F)F)c(C(N)=O)s3)c2cc1OC [GW843682X] , I see its Population Apoptotic (%) listed as 62%

Looking up CC(C)NC(=O)N1CC[C@H](NC2=Nc3cc(F)ccc3N(CC(F)F)c3ccc(Cl)cc32)C1 , I see its Population Apoptotic (%) listed as 53%

Looking up COC(=O)C1=C(C)NC(C)=C(C(=O)OCCCN2CCC(c3ccccc3)(c3ccccc3)CC2)[C@H]1c1cccc([N+](=O)[O-])c1 , I see its Population Apoptotic (%) listed as 76%

Looking up Cc1nc(N2CC[C@H](O)C2)ncc1-c1cc(C(F)(F)F)cc2[nH]ncc12 , I see its Population Apoptotic (%) listed as 27%

Looking up CC(C)(C)NC[C@H](O)COc1nsnc1N1CCOCC1 , I see its Population Apoptotic (%) listed as 63%

Looking up Cc1c[nH]c2nccc(Oc3c(F)cc(Nc4cc(Cl)nc(N)n4)cc3F)c12 , I see its Population Apoptotic (%) listed as 37%

Looking up C=CC(=O)Nc1ccc2[nH]c(=O)n(C3CCN(Cc4ccc(-c5nc6cc[nH]c(=O)c6cc5-c5ccccc5)cc4)CC3)c2c1 , I see its Population Apoptotic (%) listed as 36%

Looking up Cl.O=C(O)c1cc(-c2ccc(C3CCNCC3)cc2)c2ccc(-c3ccc(C(F)(F)F)cc3)cc2c1 , I see its Population Apoptotic (%) listed as 35%

Looking up O=C(c1cc2c(cc1F)OC(c1ccc(F)cc1)(c1ccc(Cl)cc1Cl)O2)N1CCOCC1 (configuration not stated) , I see its Population Apoptotic (%) listed as 44%

Looking up CNC(=O)Nc1ccc2c(c1)[C@@]1(CC2)OC(=O)N(CC(=O)N(Cc2ccc(F)cc2)[C@@H](C)C(F)(F)F)C1=O , I see its Population Apoptotic (%) listed as 33%

Looking up CCOC(=O)Nc1cc(-c2ccc(C)c(NS(C)(=O)=O)c2)nn2c(C)nnc12 , I see its Population Apoptotic (%) listed as 22%

Looking up O=c1cc(N2CCOCC2)oc2c(-c3cccc4c3sc3ccccc34)cccc12 , I see its Population Apoptotic (%) listed as 25%

Looking up COc1ccccc1CN[C@H]1C2CCN(CC2)[C@H]1C(c1ccccc1)c1ccccc1 , I see its Population Apoptotic (%) listed as 45%

###

Please provide measured Population Pyknosed Nuclei (%) for the entries that follow.
# System: HEK-293T
# protocol_text: Multiplex assay against HEK293T
# Assay type: toxicity, cell-based
# condition_context: human, 12 h, 10 µM, compound concentration 10 uM, replicate 2
// note: answer is a bare numeric in %

Looking up CC(C)NC(=O)N1CC[C@H](NC2=Nc3cc(F)ccc3N(CC(F)F)c3ccc(Cl)cc32)C1 , I see its Population Pyknosed Nuclei (%) listed as 40

Looking up COc1ccc(-c2ccc3ncc4c(c3c2)n(-c2ccc(N3CCNCC3)c(C(F)(F)F)c2)c(=O)n4C)cn1.O=C(O)/C=C\C(=O)O , I see its Population Pyknosed Nuclei (%) listed as 41

Looking up CN1CCN(Cc2ccc(Nc3ncc(Cl)c(Nc4ccccc4S(=O)(=O)N(C)C)n3)cc2)CC1 , I see its Population Pyknosed Nuclei (%) listed as 26

Looking up C[C@]12CC[C@@H]3c4ccc(O)cc4CC[C@H]3[C@@H]1CC[C@@H]2O , I see its Population Pyknosed Nuclei (%) listed as 58

Every entry's value here was drawn from ChEMBL document CHEMBL4689842.
